- target.system: UniProt P03366
Measured IC50, listed per entry.
Write the value in µM as a bare number.

Illustrative cases are given below, each with its answer.
molecule	endpoint.name	observed.value
O=C(O)CN1CC23c4c5c6c7c8c9c(c%10c%11c2c2c4c4c%12c5c5c6c6c8c8c%13c9c9c%10c%10c%11c%11c2c2c4c4c%12c%12c5c5c6c8c6c8c%13c9c9c%10c%10c%11c2c2c4c4c%12c5c6c5c8c9c%10c2c45)C73C1C(=O)O (stereo not shown)	IC50	1
C[N+]1(C)CC23c4c5c6c7c8c9c(c%10c%11c2c2c4c4c%12c5c5c6c6c8c8c%13c9c9c%10c%10c%11c%11c2c2c4c4c%12c%12c5c5c6c8c6c8c%13c9c9c%10c%10c%11c2c2c4c4c%12c5c6c5c8c9c%10c2c45)C73C1 (stereo not shown)	IC50	1.6
O=C(O)CN1C(C(=O)O)C23c4c5c6c7c8c9c(c%10c%11c2c2c4c4c%12c5c5c6c6c8c8c%13c9c9c%10c%10c%11c%11c2c2c4c4c%12c%12c5c5c6c8c6c8c%13c9c9c%10c%10c%11c2c2c4c4c%12c5c6c5c8c9c%10c2c45)C73C1C(=O)O (stereo not shown)	IC50	0.029

--- query ---
Record CN1CC23c4c5c6c7c8c9c(c%10c%11c2c2c4c4c%12c5c5c6c6c8c8c%13c9c9c%10c%10c%11c%11c2c2c4c4c%12c%12c5c5c6c8c6c8c%13c9c9c%10c%10c%11c2c2c4c4c%12c5c6c5c8c9c%10c2c45)C73C1c1ccc[n+](C)c1 (stereo not shown) : what is its IC50 with UniProt P03366? 5.2
